# Tested on: ONS-76 (Other Solid Carcinomas)
# assay_remarks: combination Emax (second highest fraction inhibited in the dose matrix, 72 h); higher = more inhibition; extreme values may be limits of the assay
Exercise: state measured combination Emax for each of the compounds provided.
Just the number, please, no unit attached.

Query block: // fetch combination Emax given entry CCN(CCO)CCCOc1ccc2c(Nc3cc(CC(=O)Nc4cccc(F)c4)[nH]n3)ncnc2c1 [AZD2811] + C[C@@H]1COCCN1C2=NC(=NC(=C2)C3(CC3)[S@](=N)(=O)C)C4=C5C=CNC5=NC=C4 [AZD6738] (first compound max 1 µM, 7x7, partner max 10 µM)
Result block: 0.908

Query block: Supply measured combination Emax of CC1(C)CCC(CN2CCN(c3ccc(C(=O)NS(=O)(=O)c4ccc(NCC5CCOCC5)c([N+](=O)[O-])c4)c(Oc4cnc5[nH]ccc5c4)c3)CC2)=C(c2ccc(Cl)cc2)C1 [Venetoclax] + CCN(CCO)CCCOc1ccc2c(Nc3cc(CC(=O)Nc4cccc(F)c4)[nH]n3)ncnc2c1 [AZD2811] (first compound max 1 µM, 7x7, partner max 1 µM) in your reply.
Result block: 0.698

Query block: Assign combination Emax to the following record: CN(CCO)CC[C@H](CSc1ccccc1)Nc1ccc(S(=O)(=O)NC(=O)c2ccc(N3CCC([C@@H](O)c4ccccc4-c4ccc(Cl)cc4)CC3)cc2)cc1S(=O)(=O)C(F)(F)F [AZD4320] + CN(C)CCCOc1ccc(-c2ccc3ncc4c(c3c2)n(C2CCOCC2)c(=O)n4C)cn1 [AZD0156] (first compound max 1 µM, 7x7, partner max 1 µM)
Result block: 0.178

Query block: Give me measured combination Emax, please, for this compound: CC1(C)CCC(CN2CCN(c3ccc(C(=O)NS(=O)(=O)c4ccc(NCC5CCOCC5)c([N+](=O)[O-])c4)c(Oc4cnc5[nH]ccc5c4)c3)CC2)=C(c2ccc(Cl)cc2)C1 [Venetoclax] + C[C@@H](Nc1cc(F)cc(F)c1)c1cc(C(=O)N(C)C)cc2c(=O)cc(N3CCOCC3)oc12 [AZD8186] (first compound max 1 µM, 7x7, partner max 3 µM)
Result block: 0.746

Query block: Return the recorded combination Emax value; entry: CN(CCO)CC[C@H](CSc1ccccc1)Nc1ccc(S(=O)(=O)NC(=O)c2ccc(N3CCC([C@@H](O)c4ccccc4-c4ccc(Cl)cc4)CC3)cc2)cc1S(=O)(=O)C(F)(F)F [AZD4320] + C[C@@H]1COCCN1C2=NC(=NC(=C2)C3(CC3)[S@](=N)(=O)C)C4=C5C=CNC5=NC=C4 [AZD6738] (first compound max 1 µM, 7x7, partner max 10 µM)
Result block: 0.877

Query block: Name the recorded combination Emax of the compound listed here: C[C@@H](Nc1cc(F)cc(F)c1)c1cc(C(=O)N(C)C)cc2c(=O)cc(N3CCOCC3)oc12 [AZD8186] + CC(=O)c1c(C)c2cnc(Nc3ccc(N4CCNCC4)cn3)nc2n(C2CCCC2)c1=O [Palbociclib] (first compound max 10 µM, 7x7, partner max 10 µM)
Result block: 0.424

====

# Test system: NCI-H2591 (Mesothelioma)
# assay_remarks: combination Emax (second highest fraction inhibited in the dose matrix, 72 h); higher = more inhibition; extreme values may be limits of the assay
readout_type: combination Emax
// no unit, no text: just the number

Query block: Return reported combination Emax. Input compound: COc1nnc2ccc(N3CCC(c4ccc(OCCN5CCN(C)C(=O)[C@H]5C)cc4)CC3)nn12 [AZD5153] + C[C@@H]1COCCN1C2=NC(=NC(=C2)C3(CC3)[S@](=N)(=O)C)C4=C5C=CNC5=NC=C4 [AZD6738] (first compound max 1 µM, 7x7, partner max 10 µM)
Result block: 0.558

Query block: Give reported combination Emax value for COc1nnc2ccc(N3CCC(c4ccc(OCCN5CCN(C)C(=O)[C@H]5C)cc4)CC3)nn12 [AZD5153] + CN(CC[C@H](CSC1=CC=CC=C1)NC2=C(C=C(C=C2)S(=O)(=O)NC(=O)C3=CC=C(C=C3)N4CCC(CC4)[C@H](C5=CC=CC=C5C6=CC=C(C=C6)Cl)O)S(=O)(=O)C(F)(F)F)CCO [AZD4320] (first compound max 1 µM, 7x7, partner max 1 µM)
Result block: 0.395

Query block: Give the reported combination Emax for this compound. CS(=O)(=O)CCNCc1ccc(-c2ccc3ncnc(Nc4ccc(OCc5cccc(F)c5)c(Cl)c4)c3c2)o1 [Lapatinib] + C[C@@H](Oc1cc(-c2cnn(C3CCNCC3)c2)cnc1N)c1c(Cl)ccc(F)c1Cl [Crizotinib] (first compound max 10 µM, 7x7, partner max 10 µM)
Result block: 0.572

====

# System: BICR22 (Oral Cavity Carcinoma);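 also: after 72 h of two-drug dosing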
# assay_remarks: Bliss excess, mean over the matrix (fraction); higher = more synergy
readout_type: Bliss excess
Just the number, please.

Query block: Identify measured Bliss excess corresponding to N#Cc1cnc(Nc2cc(NC[C@H]3CNCCO3)c(C(F)(F)F)cn2)cn1 [SRA737] + O=c1[nH]cc(F)c(=O)[nH]1 [5-Fluorouracil] (first compound max 10 µM, 7x7, partner max 20 µM)
Result block: 0.0671

Query block: Indicate the recorded Bliss excess value for this molecule: C[C@@H](c1ccc2nccn2c1)n1nnc2ncc(-c3cnn(C)c3)nc21 [Savolitinib] + CC1(C)CCC(CN2CCN(c3ccc(C(=O)NS(=O)(=O)c4ccc(NCC5CCOCC5)c([N+](=O)[O-])c4)c(Oc4cnc5[nH]ccc5c4)c3)CC2)=C(c2ccc(Cl)cc2)C1 [Venetoclax] (first compound max 1 µM, 7x7, partner max 1 µM)
Result block: -0.0353

Query block: State its Bliss excess: CC(=O)c1c(C)c2cnc(Nc3ccc(N4CCNCC4)cn3)nc2n(C2CCCC2)c1=O [Palbociclib] + Cn1cnc2c(F)c(Nc3ccc(Br)cc3Cl)c(C(=O)NOCCO)cc21 [Selumetinib] (first compound max 10 µM, 7x7, partner max 10 µM)
Result block: 0.102

Query block: Supply Bliss excess value. Item: NC1(C(=O)N[C@@H](CCO)c2ccc(Cl)cc2)CCN(c2ncnc3[nH]ccc23)CC1 [Capivasertib] + CC(=O)c1c(C)c2cnc(Nc3ccc(N4CCNCC4)cn3)nc2n(C2CCCC2)c1=O [Palbociclib] (first compound max 10 µM, 7x7, partner max 10 µM)
Result block: -0.0329

Query block: Give the measured Bliss excess for COc1cc2c(cc1OCCCCCOc1cc3c(cc1OC)C(=O)N1C=C(C)C[C@H]1C=N3)N=C[C@@H]1CC(C)=CN1C2=O [SG3199] + O=C(c1cc(Cc2n[nH]c(=O)c3ccccc23)ccc1F)N1CCN(C(=O)C2CC2)CC1 [Olaparib] (first compound max 0.001 µM, 7x7, partner max 10 µM)
Result block: -0.0473

Query block: Retrieve Bliss excess measured for CC1(C)CCC(CN2CCN(c3ccc(C(=O)NS(=O)(=O)c4ccc(NCC5CCOCC5)c([N+](=O)[O-])c4)c(Oc4cnc5[nH]ccc5c4)c3)CC2)=C(c2ccc(Cl)cc2)C1 [Venetoclax] + Cn1cnc2c(F)c(Nc3ccc(Br)cc3Cl)c(C(=O)NOCCO)cc21 [Selumetinib] (first compound max 1 µM, 7x7, partner max 3 µM) and print it.
Result block: -0.0691

Query block: Output Bliss excess of CN(C)CCCOc1ccc(-c2ccc3ncc4c(c3c2)n(C2CCOCC2)c(=O)n4C)cn1 [AZD0156] + C=CCn1c(=O)c2cnc(Nc3ccc(N4CCN(C)CC4)cc3)nc2n1-c1cccc(C(C)(C)O)n1 [AZD1775] (first compound max 1 µM, partner max 1 µM)
Result block: -0.0146

====

# Tested on: FU97 (Gastric Carcinoma)
# assay_remarks: combination Emax (second highest fraction inhibited in the dose matrix, 72 h); higher = more inhibition; extreme values may be limits of the assay
Response field class: string, computed from recorded combination Emax by ranges Low (below 0.3), Mid (0.3 to below 0.4), High (0.4 or more)

Query block: Which combination Emax category applies to Cc1cc2ncnn2cc1Nc1ncc2c(n1)n(C1CCOCC1)c(=O)n2C [AZD7648] + CN(C)CCCOc1ccc(-c2ccc3ncc4c(c3c2)n(C2CCOCC2)c(=O)n4C)cn1 [AZD0156] (first compound max 10 µM, 7x7, partner max 1 µM) here?
Result block: Mid

Query block: Using the reported combination Emax, which band applies to CCN(CCO)CCCOc1ccc2c(Nc3cc(CC(=O)Nc4cccc(F)c4)[nH]n3)ncnc2c1 [AZD2811] + O=C(c1cc(Cc2n[nH]c(=O)c3ccccc23)ccc1F)N1CCN(C(=O)C2CC2)CC1 [Olaparib] (first compound max 1 µM, 7x7, partner max 10 µM) ?
Result block: Mid

Query block: Hey, which category is CN(CCO)CC[C@H](CSc1ccccc1)Nc1ccc(S(=O)(=O)NC(=O)c2ccc(N3CCC([C@@H](O)c4ccccc4-c4ccc(Cl)cc4)CC3)cc2)cc1S(=O)(=O)C(F)(F)F [AZD4320] + CC(=O)O[C@H]1C(=O)[C@@]2(C)[C@H]([C@H](OC(=O)c3ccccc3)[C@]3(O)C[C@H](OC(=O)[C@H](O)[C@@H](NC(=O)c4ccccc4)c4ccccc4)C(C)=C1C3(C)C)[C@]1(OC(C)=O)CO[C@@H]1C[C@@H]2O [Paclitaxel] (first compound max 1 µM, 7x7, partner max 3 µM) in, do you know?
Result block: High

Query block: Which class does Cc1c2c(nn1C)CSCc1cc(n(C)n1)CSc1cc(c3ccccc3c1)OCCCc1c(C(=O)O)n(C)c3c-2c(Cl)ccc13 [AZD5991] + CC1(C)CCC(CN2CCN(c3ccc(C(=O)NS(=O)(=O)c4ccc(NCC5CCOCC5)c([N+](=O)[O-])c4)c(Oc4cnc5[nH]ccc5c4)c3)CC2)=C(c2ccc(Cl)cc2)C1 [Venetoclax] (first compound max 1 µM, 7x7, partner max 1 µM) fall in?
Result block: Low

Query block: # classify by combination Emax band: NC1(C(=O)N[C@@H](CCO)c2ccc(Cl)cc2)CCN(c2ncnc3[nH]ccc23)CC1 [Capivasertib] + CC(C)n1c(=O)n(C)c2cnc3cc(F)c(-c4ccc(OCCCN5CCCCC5)nc4)cc3c21 [AZD1390] (first compound max 10 µM, 7x7, partner max 0.3 µM)
Result block: Mid

Query block: Just checking, what class would you give CCN(CCO)CCCOc1ccc2c(Nc3cc(CC(=O)Nc4cccc(F)c4)[nH]n3)ncnc2c1 [AZD2811] + C=CCn1c(=O)c2cnc(Nc3ccc(N4CCN(C)CC4)cc3)nc2n1-c1cccc(C(C)(C)O)n1 [AZD1775] (first compound max 1 µM, partner max 1 µM) here?
Result block: Low

Query block: In plain terms, what class is CN(CCO)CC[C@H](CSc1ccccc1)Nc1ccc(S(=O)(=O)NC(=O)c2ccc(N3CCC([C@@H](O)c4ccccc4-c4ccc(Cl)cc4)CC3)cc2)cc1S(=O)(=O)C(F)(F)F [AZD4320] + CN(C)CCCOc1ccc(-c2ccc3ncc4c(c3c2)n(C2CCOCC2)c(=O)n4C)cn1 [AZD0156] (first compound max 1 µM, 7x7, partner max 1 µM) ?
Result block: Low

Query block: Pick a category. Item: C=CCn1c(=O)c2cnc(Nc3ccc(N4CCN(C)CC4)cc3)nc2n1-c1cccc(C(C)(C)O)n1 [AZD1775] + C[C@@H]1COCCN1C2=NC(=NC(=C2)C3(CC3)[S@](=N)(=O)C)C4=C5C=CNC5=NC=C4 [AZD6738] (first compound max 1 µM, partner max 10 µM)
Result block: Mid

Query block: Categorize the following entry: CN(CCO)CC[C@H](CSc1ccccc1)Nc1ccc(S(=O)(=O)NC(=O)c2ccc(N3CCC([C@@H](O)c4ccccc4-c4ccc(Cl)cc4)CC3)cc2)cc1S(=O)(=O)C(F)(F)F [AZD4320] + C1CN(CCC1(C(=O)N[C@@H](CCO)C2=CC=C(C=C2)Cl)N)C3=NC=NC4=C3C=CN4 [Capivasertib] (first compound max 1 µM, 7x7, partner max 3 µM)
Result block: High

Query block: Band of COc1cccc2c1C(=O)c1c(O)c3c(c(O)c1C2=O)C[C@@](O)(C(=O)CO)C[C@@H]3O[C@H]1C[C@H](N)[C@H](O)[C@H](C)O1 [Doxorubicin] + Cc1cc2ncnn2cc1Nc1ncc2c(n1)n(C1CCOCC1)c(=O)n2C [AZD7648] (first compound max 1 µM, 7x7, partner max 10 µM) ?
Result block: High

Query block: Class (by measured combination Emax) for COc1cccc(OCCCN)c1-c1cc(Nc2cnc(C#N)cn2)n[nH]1 [Prexasertib] + CN(C)CCCOc1ccc(-c2ccc3ncc4c(c3c2)n(C2CCOCC2)c(=O)n4C)cn1 [AZD0156] (first compound max 1 µM, 7x7, partner max 1 µM)
Result block: Mid
